biological target: human MDM2 protein (amino acids 1-125) (Homo sapiens, UniProt Q00987); assay: fluorescence polarization competition, FAM-12/1 tracer, MDM2
Sequence (Q00987 1-125 limits assumed): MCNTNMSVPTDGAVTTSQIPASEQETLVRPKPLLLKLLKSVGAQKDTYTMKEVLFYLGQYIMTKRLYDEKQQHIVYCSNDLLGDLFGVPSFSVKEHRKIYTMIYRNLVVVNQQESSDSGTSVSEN
Positions of bridges follow the written chain, without caps; N, C: chain ends. Non-standard residues stand in square brackets, D forms with d. No end group written: not given here. dPhe(4-CF3) = N[C@H](Cc1ccc(C(F)(F)F)cc1)C(=O)O; dTrp(6-F) = N[C@H](Cc1c[nH]c2cc(F)ccc12)C(=O)O; R8 = C=CCCCCCC[C@@](C)(N)C(=O)O; R5 = C=CCCC[C@@](C)(N)C(=O)O; S5 = C=CCCC[C@](C)(N)C(=O)O
Measured pKd, listed per entry.
Lab note: report pKd as minus log10 of the concentration in molar units, number only.

{"columns": ["Binder", "Reported"],
 "data": [
  ["[R5][dA][dTrp(6-F)][dY][R5][dN][dPhe(4-CF3)][dE][S5][dL][dL][R8]-NH2 (staple 1-5, 9-12) [^DPMI-δ(1-5,9-12)]", 9.15]
]}

# input for lookup
Query string: Would you mind telling me what pKd value was observed for XAXYXNXEKLLX (all alpha-amino acids have a D configuration; Xaa1 is R5 ((R)-2-(4'-pentenyl)-alanine), Xaa5 is B5 (2,2-(4'-pentenyl)-glycine), Xaa12 is R8 ((R)-2-(7'-octenyl)-alanine), joined by a hydrocarbon stitch 1-5 and 5-12 with residue 5 in common; Xaa3 is 6-F-Trp; Xaa7 is p-CF3-Phe; Xaa12 optionally has a C-terminal amide; Xaa1 optionally has a N-terminal acyl) [^DPMI-δ(1,5,12)] ?
Result string: 8.37
